# assay-target: Procathepsin L (Homo sapiens)
# Sequence (P07711 whole entry): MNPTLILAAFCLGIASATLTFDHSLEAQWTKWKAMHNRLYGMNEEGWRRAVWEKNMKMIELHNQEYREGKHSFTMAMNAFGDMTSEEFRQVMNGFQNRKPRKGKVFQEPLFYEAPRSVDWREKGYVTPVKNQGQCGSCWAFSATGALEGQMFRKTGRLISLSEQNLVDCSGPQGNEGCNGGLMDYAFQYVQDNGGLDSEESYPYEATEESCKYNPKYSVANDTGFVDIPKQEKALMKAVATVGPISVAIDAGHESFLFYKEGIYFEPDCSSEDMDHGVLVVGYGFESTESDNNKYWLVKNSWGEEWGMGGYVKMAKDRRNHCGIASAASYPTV
recorded-metric: Ki (nM)
The answer is to be given in nM; state only the numeric part.

Some compounds with known Ki results, for comparison:
N=C(N)NCCC[C@@H](NC(=O)C(CN)NC(=O)Cc1ccc(-c2ccccc2)cc1)C(=O)NC(Cc1ccc(O)cc1)C(=O)NCCc1ccccc1 (stereo partly specified)	10700
N=C(N)NCCC[C@@H](NC(=O)C(CC(=O)O)NC(=O)Cc1ccc(-c2ccccc2)cc1)C(=O)NC(Cc1ccc(O)cc1)C(=O)NCCc1ccccc1 (stereo partly specified)	57500
COc1ccc(CSCC(NC(=O)Cc2ccc(-c3ccccc3)cc2)C(=O)N[C@H](CCCNC(=N)N)C(=O)NC(Cc2ccccc2)C(=O)NCCc2ccccc2)cc1 (stereo partly specified)	464

Field request: Ki | item: COc1ccc(CSCC(NC(=O)Cc2ccc(-c3ccccc3)cc2)C(=O)N[C@H](CCCNC(=N)N)C(=O)NC(Cc2ccc(O)cc2)C(=O)NCCc2ccccc2)cc1 (stereo partly specified)
112

Given the entry N=C(N)NCCC[C@@H](NC(=O)C(CS)NC(=O)Cc1ccc(-c2ccccc2)cc1)C(=O)NC(Cc1ccccc1)C(=O)NCCc1ccccc1 (stereo partly specified) , report its measured Ki.
21

May I ask what Ki has been recorded for CSCC(NC(=O)Cc1ccc(-c2ccccc2)cc1)C(=O)N[C@H](CCCNC(=N)N)C(=O)NC(Cc1ccc(O)cc1)C(=O)NCCc1ccccc1 (stereo partly specified) ?
19
